Source of measurements: patent US20130129714A1

# assayed target: human Tamm-Horsfall protein (human, UniProt P07911 25-587)
# procedure details: competitive ELISA; light chains bound in the wells, Tamm-Horsfall protein in solution, linear peptide as inhibitor
Answer each item with its documented pIC50.
# log scale: pIC50 equals minus log10 of the concentration in mol/L

According to the records, this binder QSYDNTLSGSYVF (also called uncyclized peptide 1) [peptide 1 (QSYDNTLSGSYVF (SEQ ID NO:1)), linear] displays pIC50 of 7.26

According to the records, this binder LSADSSGSYLYVF (also called uncyclized peptide 2) [peptide 2 (LSADSSGSYLYVF (SEQ ID NO:2)), linear] displays pIC50 of 7.04
